Taken from patent US20100093763A1.

target: human adenosine A1 receptor (Homo sapiens); construct: expressed in transfected cells; host or cells: CHO-K1 cells with cAMP inducible beta-galactosidase reporter gene; experiment: Adenosine A1 Receptor Functional Assay (A1GAL2); assay type: cell-based; conditions: CHO-K1 cells overexpressing human A1 receptor, cAMP inducible beta-galactosidase reporter, 4 nM r-PIA/1 uM Forskolin agonist challenge
Sequence (P30542 whole entry): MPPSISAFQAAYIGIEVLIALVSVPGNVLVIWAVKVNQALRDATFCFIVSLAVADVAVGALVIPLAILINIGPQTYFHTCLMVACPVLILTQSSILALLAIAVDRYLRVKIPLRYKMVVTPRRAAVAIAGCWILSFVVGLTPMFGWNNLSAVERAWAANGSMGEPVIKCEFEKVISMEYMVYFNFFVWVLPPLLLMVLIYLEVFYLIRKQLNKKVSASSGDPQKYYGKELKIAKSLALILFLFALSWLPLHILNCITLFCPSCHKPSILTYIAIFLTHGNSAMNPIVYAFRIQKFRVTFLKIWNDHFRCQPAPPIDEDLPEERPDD
resultType: Ki (nM)

Consider the reported Ki for these molecules:
* COc1ccccc1Cc1cc2c(N)nc(-c3cccc(F)c3)nc2s1 [Example 19] | 418
* COc1ccccc1C(=O)c1cc2c(N)nc(-c3cccc(F)c3)nc2s1 [Example 21] | 162
* CC(c1ccccc1)c1cc2c(N)nc(-c3cccc(C#N)c3)nc2s1 (racemic) [Example 10] | 1770
* N#Cc1cccc(-c2nc(N)c3cc(Cc4ccccc4)sc3n2)c1 [Example 1] | 205
* Nc1nc(-c2cccc(F)c2)nc2sc(Cc3cc(F)cc(F)c3)cc12 [Example 20] | 564
* COc1ccccc1C(=O)c1cc2c(N)nc(-c3cccc(C#N)c3)nc2s1 [Example 17] | 1040

[I] Nc1nc(-c2cccc(F)c2)nc2sc(Cc3ccccc3)cc12 [Example 14]
[II] COc1ccccc1-c1nc(N)c2cc(Cc3ccccc3)sc2n1 [Example 11]
Asked: Given I and given II , which shows the smaller recorded Ki? Reply briefly: the label of your chosen item.
Given back: I
